Each entry below carries its reported koff.
target: T1, cynomolgus monkey PCSK9 (cynomolgus monkey, UniProt A8T662 31-692 (Macaca nemestrina entry), limits assumed); assay: ProteOn SPR, captured antibody, pH 5.8;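 note: antibodies captured on a GLC chip coated with anti-human Fc, rate constants from a 1:1 Langmuir fit of the sensorgrams, Kd derived from the fitted rates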
T1 construct: also called Cyno PCSK9; cynoPCSK9
T1 sequence (A8T662 31-692 limits assumed): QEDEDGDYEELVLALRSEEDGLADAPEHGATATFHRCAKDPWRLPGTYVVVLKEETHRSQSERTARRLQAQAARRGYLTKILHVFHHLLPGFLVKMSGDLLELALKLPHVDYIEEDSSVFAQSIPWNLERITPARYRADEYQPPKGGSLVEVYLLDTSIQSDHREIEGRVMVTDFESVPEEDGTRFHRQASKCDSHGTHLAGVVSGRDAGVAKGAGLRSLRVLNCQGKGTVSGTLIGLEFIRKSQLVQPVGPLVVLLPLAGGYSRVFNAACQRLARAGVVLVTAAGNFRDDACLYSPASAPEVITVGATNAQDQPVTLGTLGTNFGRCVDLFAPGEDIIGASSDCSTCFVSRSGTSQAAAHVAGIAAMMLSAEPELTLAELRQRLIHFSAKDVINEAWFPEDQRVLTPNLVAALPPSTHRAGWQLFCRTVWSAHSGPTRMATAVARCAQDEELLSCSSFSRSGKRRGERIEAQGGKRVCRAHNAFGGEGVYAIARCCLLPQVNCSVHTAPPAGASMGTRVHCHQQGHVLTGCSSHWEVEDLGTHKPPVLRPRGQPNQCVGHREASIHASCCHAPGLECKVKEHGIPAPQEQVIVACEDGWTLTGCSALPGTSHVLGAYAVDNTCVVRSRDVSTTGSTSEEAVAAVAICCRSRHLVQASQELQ

{"binder": "CL-148489 (antibody, V domains shown, Human antibody with a kappa light chain) VH: EVQLVESGGGLVQPGRSLRLSCTASGFTFADYVMHWVRQTPGKGLEWVSGISWNSYSINYADSVKGRFTISRDNAQNSLYLQMNSLRAEDTALYFCAKDITYDLLTGYNYNYGLDVWGQGTTVTVSS VL: DIVMTQTPLSLSVTPGQPASISCRSSQSLLHSDGKTYLYWYLQKPGQPPQLLIYEVSNRFSGVPDRFSGSGSGTDFTLKISRVEAEDVGLYYCMQSIQLPLTFGGGTKVEIK", "koff": "0.000121 s⁻¹"}
{"binder": "CL-148219 QLT mutant (antibody, V domains shown) VH: QVHLQESGPGLVKPSETLSLTCTVSGGSISSYYWSWIRQYPGKGLEWIGYISYSGSSNYNPSLKRRVTISRDTSKNQFSLQLTSVIAADTAVYYCARNLMIRGAYGMDVWGQGTTVTVSS VL: DTVMTQSPLSLPVTPGEPASISCRSSQSLLHSNGYNYLDWYLQKAGQSPQLLIYLGSNRASGVPDRFSGSVSGTDFTLKISRVEAEDVGIYYCMQALQTPFTFGPGTKVDIK", "koff": "0.000331 s⁻¹"}
{"binder": "CL-274698 (antibody, V domains shown, Human antibody with a kappa light chain, derived from a PCSK9 knockout mouse) VH: QVQLQESGPGLVKPSGTLSLTCAVSGGSISSSKWWSWVRQPPGKGLEWIGETHYSGSTNYNPSLKSRVTISVDKSKNQFSLKLRSVTAADTAVYYCARVGATENFWGQGTLVTVSS VL: EIVLTQSPATLSLSPGERATLSCRASQSVFRYLAWYQQKPGQAPRLLIYDASTRATDIPARFSGSGSGTDFTLTISSLEPEDFAVYYCQQRSNWPPTFGQGTKVEIK", "koff": "3.75e-05 s⁻¹"}
{"binder": "CL-148219 (antibody, V domains shown, NLT motif in heavy chain framework 3 confirmed N-glycosylated by mass spectrometry, Human antibody, captured through anti-human Fc in the SPR assay) VH: QVHLQESGPGLVKPSETLSLTCTVSGGSISSYYWSWIRQYPGKGLEWIGYISYSGSSNYNPSLKRRVTISRDTSKNQFSLNLTSVIAADTAVYYCARNLMIRGAYGMDVWGQGTTVTVSS VL: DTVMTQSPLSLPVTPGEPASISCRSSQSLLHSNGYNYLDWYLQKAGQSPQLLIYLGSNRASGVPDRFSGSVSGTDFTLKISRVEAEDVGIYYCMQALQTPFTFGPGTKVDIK", "koff": "0.000336 s⁻¹"}

Every entry's value here was drawn from patent US20220049017A1.
